test system: Klebsiella pneumoniae; test: Antimicrobial activity against Klebsiella pneumoniae ATCC 10031 after 24 hrs by broth microdilution method; assay type: functional; conditions: ATCC 10031, 24 h
Positions of bridges follow the written chain, without caps; N, C: chain ends. Non-standard residues stand in square brackets, D forms with d. Residues, ends and D or L forms follow the SMILES beside them. R5 = C=CCCC[C@@](C)(N)C(=O)O
Recorded MIC for the following compounds
Answer with the figure and its unit, nothing else.

Q: Give the value of MIC reported for the following: CC(=O)N[C@@H](CCCCN)C(=O)N[C@]1(C)CCC/C=C\CCC[C@](C)(C(=O)N[C@@H](CCCCN)C(=O)N[C@@H](CCCCN)C(=O)N[C@]2(C)CCC/C=C\CCC[C@](C)(C(=O)N[C@@H](Cc3c[nH]c4ccccc34)C(=O)N[C@@H](CCCCN)C(N)=O)NC(=O)[C@H](C)NC(=O)[C@H](CCCCN)NC(=O)[C@H](C)NC2=O)NC(=O)[C@H](C)NC(=O)[C@H](CCCCN)NC(=O)[C@H](C)NC1=O (Ac-K[R5]AKA[R5]KK[R5]AKA[R5]WK-NH2; staple (Z) 2-6, 9-13)
Result: 200 µg/mL

Q: Give the measured MIC for C[C@@H]1NC(=O)[C@H](CCCCN)NC(=O)[C@H](C)NC(=O)[C@](C)(NC(=O)[C@H](CCCCN)NC(=O)[C@H](CCCCN)NC(=O)[C@@]2(C)CCC/C=C\CCC[C@@](C)(NC(=O)[C@@H](N)CCCCN)C(=O)N[C@@H](C)C(=O)N[C@@H](CCCCN)C(=O)N[C@@H](Cc3c[nH]c4ccccc34)C(=O)N2)CCC/C=C\CCC[C@](C)(C(=O)N[C@@H](C)C(=O)N[C@@H](CCCCN)C(N)=O)NC1=O (H-K[R5]AKW[R5]KK[R5]AKA[R5]AK-NH2; staple (Z) 2-6, 9-13)
Result: 12.5 µg/mL

Q: Annotate the compound CC(=O)N[C@@H](CCCCN)C(=O)N[C@]1(C)CCC/C=C\CCC[C@](C)(C(=O)N[C@@H](CCCCN)C(=O)N[C@@H](CCCCN)C(=O)N[C@]2(C)CCC/C=C\CCC[C@](C)(C(=O)N[C@@H](C)C(=O)N[C@@H](CCCCN)C(N)=O)NC(=O)[C@H](C)NC(=O)[C@H](CCCCN)NC(=O)[C@H](C)NC2=O)NC(=O)[C@H](Cc2c[nH]c3ccccc23)NC(=O)[C@H](CCCCN)NC(=O)[C@H](C)NC1=O (Ac-K[R5]AKW[R5]KK[R5]AKA[R5]AK-NH2; staple (Z) 2-6, 9-13) with its measured MIC.
Result: 37.5 µg/mL
